Data provenance is BigSolDB 2.1.

Settings: in methanol, 308.15 K

[
  {
    "Input smiles": "Oc1cc(O)c2cc(O)c(-c3cc(O)c(O)c(O)c3)[o+]c2c1.[Cl-]",
    "solubility (mole fraction)": "7.71e-07"
  }
]

###

Conditions: in acetone, 313.15 K

[
  {
    "Input smiles": "Oc1cc(O)c2cc(O)c(-c3cc(O)c(O)c(O)c3)[o+]c2c1.[Cl-]",
    "solubility (mole fraction)": "7.7e-11"
  }
]

###

Conditions: in ethanol, 328.15 K

[
  {
    "Input smiles": "Oc1cc(O)c2cc(O)c(-c3cc(O)c(O)c(O)c3)[o+]c2c1.[Cl-]",
    "solubility (mole fraction)": "1.06e-07"
  }
]

###

Settings: in methanol, 303.15 K

[
  {
    "Input smiles": "Oc1cc(O)c2cc(O)c(-c3cc(O)c(O)c(O)c3)[o+]c2c1.[Cl-]",
    "solubility (mole fraction)": "6.62e-07"
  }
]

###

Settings: in ethanol, 313.15 K
Result type: solubility (mole fraction)

[
  {
    "Input smiles": "Oc1cc(O)c2cc(O)c(-c3cc(O)c(O)c(O)c3)[o+]c2c1.[Cl-]",
    "Measured": "7.7e-08"
  }
]

###

Settings: in ethanol, 298.15 K

[
  {
    "Input smiles": "Oc1cc(O)c2cc(O)c(-c3cc(O)c(O)c(O)c3)[o+]c2c1.[Cl-]",
    "solubility (mole fraction)": "5.73e-08"
  }
]

###

Details: in water, 328.15 K
Result type: solubility (mole fraction)

[
  {
    "Input smiles": "Oc1cc(O)c2cc(O)c(-c3cc(O)c(O)c(O)c3)[o+]c2c1.[Cl-]",
    "Result type": "solubility (mole fraction)",
    "Measured": "1.11e-06"
  }
]

###

Settings: in acetone, 303.15 K
Result type: solubility (mole fraction)

[
  {
    "Input smiles": "Oc1cc(O)c2cc(O)c(-c3cc(O)c(O)c(O)c3)[o+]c2c1.[Cl-]",
    "Measured": "6.6e-11"
  }
]

###

Conditions: in ethanol, 338.15 K
Result type: solubility (mole fraction)

[
  {
    "Input smiles": "Oc1cc(O)c2cc(O)c(-c3cc(O)c(O)c(O)c3)[o+]c2c1.[Cl-]",
    "Measured": "1.37e-07"
  }
]

###

Details: in water, 323.15 K

[
  {
    "Input smiles": "Oc1cc(O)c2cc(O)c(-c3cc(O)c(O)c(O)c3)[o+]c2c1.[Cl-]",
    "solubility (mole fraction)": "1.02e-06"
  }
]

###

Details: in water, 313.15 K

[
  {
    "Input smiles": "Oc1cc(O)c2cc(O)c(-c3cc(O)c(O)c(O)c3)[o+]c2c1.[Cl-]",
    "solubility (mole fraction)": "7.87e-07"
  }
]

###

Conditions: in methanol, 318.15 K

[
  {
    "Input smiles": "Oc1cc(O)c2cc(O)c(-c3cc(O)c(O)c(O)c3)[o+]c2c1.[Cl-]",
    "solubility (mole fraction)": "9.71e-07"
  }
]

###

Details: in acetone, 308.15 K

[
  {
    "Input smiles": "Oc1cc(O)c2cc(O)c(-c3cc(O)c(O)c(O)c3)[o+]c2c1.[Cl-]",
    "solubility (mole fraction)": "7.1e-11"
  }
]

###

Conditions: in acetone, 338.15 K

[
  {
    "Input smiles": "Oc1cc(O)c2cc(O)c(-c3cc(O)c(O)c(O)c3)[o+]c2c1.[Cl-]",
    "solubility (mole fraction)": "1.35e-10"
  }
]

###

Details: in acetone, 328.15 K
Result type: solubility (mole fraction)

[
  {
    "Input smiles": "Oc1cc(O)c2cc(O)c(-c3cc(O)c(O)c(O)c3)[o+]c2c1.[Cl-]",
    "Result type": "solubility (mole fraction)",
    "Measured": "1.06e-10"
  }
]

###

Settings: in water, 338.15 K
Result type: solubility (mole fraction)

[
  {
    "Input smiles": "Oc1cc(O)c2cc(O)c(-c3cc(O)c(O)c(O)c3)[o+]c2c1.[Cl-]",
    "Result type": "solubility (mole fraction)",
    "Measured": "1.48e-06"
  }
]

###

Conditions: in water, 333.15 K
Result type: solubility (mole fraction)

[
  {
    "Input smiles": "Oc1cc(O)c2cc(O)c(-c3cc(O)c(O)c(O)c3)[o+]c2c1.[Cl-]",
    "Result type": "solubility (mole fraction)",
    "Measured": "1.24e-06"
  }
]

###

Conditions: in methanol, 328.15 K

[
  {
    "Input smiles": "Oc1cc(O)c2cc(O)c(-c3cc(O)c(O)c(O)c3)[o+]c2c1.[Cl-]",
    "solubility (mole fraction)": "1.26e-06"
  }
]

###

Conditions: in ethanol, 323.15 K
Result type: solubility (mole fraction)

[
  {
    "Input smiles": "Oc1cc(O)c2cc(O)c(-c3cc(O)c(O)c(O)c3)[o+]c2c1.[Cl-]",
    "Measured": "9.8e-08"
  }
]

###

Conditions: in ethanol, 318.15 K
Result type: solubility (mole fraction)

[
  {
    "Input smiles": "Oc1cc(O)c2cc(O)c(-c3cc(O)c(O)c(O)c3)[o+]c2c1.[Cl-]",
    "Result type": "solubility (mole fraction)",
    "Measured": "8.59e-08"
  }
]

###

Settings: in methanol, 323.15 K
Result type: solubility (mole fraction)

[
  {
    "Input smiles": "Oc1cc(O)c2cc(O)c(-c3cc(O)c(O)c(O)c3)[o+]c2c1.[Cl-]",
    "Measured": "1.05e-06"
  }
]

###

Details: in water, 308.15 K

[
  {
    "Input smiles": "Oc1cc(O)c2cc(O)c(-c3cc(O)c(O)c(O)c3)[o+]c2c1.[Cl-]",
    "solubility (mole fraction)": "6.98e-07"
  }
]

###

Conditions: in acetone, 343.15 K
Result type: solubility (mole fraction)

[
  {
    "Input smiles": "Oc1cc(O)c2cc(O)c(-c3cc(O)c(O)c(O)c3)[o+]c2c1.[Cl-]",
    "Result type": "solubility (mole fraction)",
    "Measured": "1.57e-10"
  }
]

###

Settings: in acetone, 298.15 K

[
  {
    "Input smiles": "Oc1cc(O)c2cc(O)c(-c3cc(O)c(O)c(O)c3)[o+]c2c1.[Cl-]",
    "solubility (mole fraction)": "5.5e-11"
  }
]

###

Conditions: in methanol, 338.15 K
Result type: solubility (mole fraction)

[
  {
    "Input smiles": "Oc1cc(O)c2cc(O)c(-c3cc(O)c(O)c(O)c3)[o+]c2c1.[Cl-]",
    "Measured": "1.53e-06"
  }
]

###

Settings: in water, 343.15 K

[
  {
    "Input smiles": "Oc1cc(O)c2cc(O)c(-c3cc(O)c(O)c(O)c3)[o+]c2c1.[Cl-]",
    "solubility (mole fraction)": "1.64e-06"
  }
]

###

Details: in acetone, 318.15 K
Result type: solubility (mole fraction)

[
  {
    "Input smiles": "Oc1cc(O)c2cc(O)c(-c3cc(O)c(O)c(O)c3)[o+]c2c1.[Cl-]",
    "Measured": "8.7e-11"
  }
]

###

Details: in water, 303.15 K
Result type: solubility (mole fraction)

[
  {
    "Input smiles": "Oc1cc(O)c2cc(O)c(-c3cc(O)c(O)c(O)c3)[o+]c2c1.[Cl-]",
    "Measured": "6.39e-07"
  }
]

###

Settings: in methanol, 313.15 K

[
  {
    "Input smiles": "Oc1cc(O)c2cc(O)c(-c3cc(O)c(O)c(O)c3)[o+]c2c1.[Cl-]",
    "solubility (mole fraction)": "8.77e-07"
  }
]
